Measured values drawn from PubChem BioAssay for this set.

target-or-system: Epidermal growth factor receptor (Homo sapiens) (UniProt P00533)
Sequence (P00533 whole entry, looked up): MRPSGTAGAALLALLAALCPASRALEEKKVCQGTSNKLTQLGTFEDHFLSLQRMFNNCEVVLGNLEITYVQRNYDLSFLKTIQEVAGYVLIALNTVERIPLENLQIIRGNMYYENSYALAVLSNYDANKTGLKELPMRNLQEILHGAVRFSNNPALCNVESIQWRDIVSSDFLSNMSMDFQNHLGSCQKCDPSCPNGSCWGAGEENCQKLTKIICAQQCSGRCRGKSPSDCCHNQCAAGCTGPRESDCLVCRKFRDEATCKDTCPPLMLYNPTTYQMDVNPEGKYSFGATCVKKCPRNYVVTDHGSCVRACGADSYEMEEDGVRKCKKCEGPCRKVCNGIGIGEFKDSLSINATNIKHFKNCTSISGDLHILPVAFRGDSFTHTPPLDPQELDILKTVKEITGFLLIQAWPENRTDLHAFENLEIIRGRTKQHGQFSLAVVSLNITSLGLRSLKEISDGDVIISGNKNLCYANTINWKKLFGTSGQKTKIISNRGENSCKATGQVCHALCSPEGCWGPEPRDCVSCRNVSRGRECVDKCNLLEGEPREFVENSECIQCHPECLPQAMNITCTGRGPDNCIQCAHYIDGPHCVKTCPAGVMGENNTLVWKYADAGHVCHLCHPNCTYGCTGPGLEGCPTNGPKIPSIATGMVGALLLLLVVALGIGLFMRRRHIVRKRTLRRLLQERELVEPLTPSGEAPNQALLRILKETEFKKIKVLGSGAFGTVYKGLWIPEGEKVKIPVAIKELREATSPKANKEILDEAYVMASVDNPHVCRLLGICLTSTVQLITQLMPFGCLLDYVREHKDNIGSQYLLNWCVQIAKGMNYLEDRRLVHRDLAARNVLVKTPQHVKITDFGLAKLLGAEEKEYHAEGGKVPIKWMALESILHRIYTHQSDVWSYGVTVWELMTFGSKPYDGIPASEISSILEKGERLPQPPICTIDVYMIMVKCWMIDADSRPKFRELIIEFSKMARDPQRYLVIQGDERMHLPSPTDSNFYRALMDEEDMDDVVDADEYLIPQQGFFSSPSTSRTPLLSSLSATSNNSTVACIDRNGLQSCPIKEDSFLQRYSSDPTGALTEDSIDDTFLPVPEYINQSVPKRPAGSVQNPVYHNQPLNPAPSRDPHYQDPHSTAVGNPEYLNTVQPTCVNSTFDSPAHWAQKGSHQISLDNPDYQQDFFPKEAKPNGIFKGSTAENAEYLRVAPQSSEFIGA
assay: EGFR binders on small-molecule microarrays, primary screen, biochemical, small-molecule microarray, 635 nm fluorescence (AID 1104);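 note: score merges 667 nm emission intensity with spot signal to noise over triplicate slides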
test-context: EGFR binding, higher = more signal
// label = rule met if composite z-score is not less than 0.3, otherwise rule not met

Illustrative cases are given below, each with its answer.
compound	target-or-system	discrete-label
COC(=O)[C@H](C)NC(=O)CCC1CC(OC(=O)NCCc2ccc(F)cc2)CC2(CCCC(COC(=O)NCc3ccccc3)O2)O1 (stereo partly drawn)	Epidermal growth factor receptor (Homo sapiens) (UniProt P00533)	rule met
C[C@@H]1CC[C@@H](C(=O)O)N[C@H]1c1cccc(N2CCOCC2)c1	Epidermal growth factor receptor (Homo sapiens) (UniProt P00533)	rule met
CC[C@@H](c1ccccc1)n1c(=O)n2n(c1=O)[C@H]1[C@H](O)[C@@H]3O[C@@H]3C(=NOCc3ccccc3)[C@H]1CC2	Epidermal growth factor receptor (Homo sapiens) (UniProt P00533)	rule not met

Ask | Check this compound for composite z-score at or above 0.3: CCOC(=O)NN=C1C[C@@H](O)[C@@H](O)[C@@H]2[C@@H]3C(=O)N(CC)C(=O)[C@@H]3CC[C@H]12
Reply | rule not met

Ask | Moving on to C[C@@H]1CC[C@H]2C(=O)OC(Cc3ccccc3)CN2[C@H]1c1ccc(Br)cc1 (stereo partly drawn)
Reply | rule not met

Ask | Now this one: CC(=O)OC[C@H]1O[C@H](CC=NO[C@@H](C)c2cn([C@H](CO)Cc3ccccc3)nn2)C=C[C@@H]1OC(C)=O
Reply | rule met

Ask | Next compound: CC(C)=NOC[C@@H](O)[C@H]1O[C@@H]2OC(C)(C)O[C@@H]2[C@H]1O
Reply | rule met

Ask | Again, but for C[C@H]1CC[C@H]2C(=O)O[C@H](CO)CN2[C@@H]1c1ccc(Br)cc1
Reply | rule not met
